Where do the numbers come from? From PubChem BioAssay AID1996.

# PARTICULARS: buffer; pH 7.4; 200.0 µM
OUTCOME_MEASURE: solubility kinetic (µg/mL)
Hi! Could you send only the number? It should be in µg/mL, unit omitted.

Some molecules with known solubility kinetic results, for comparison:
What value of solubility kinetic has been recorded for this entry: Cc1nc2cc(NC(=O)c3ccco3)ccc2n1C 38.2

Find the recorded solubility kinetic belonging to CN(Cc1ccccc1)S(=O)(=O)c1cccc2nsnc12 and report it. 3

Data request, read-out solubility kinetic, for CC(NC(=O)Cc1ccc([N+](=O)[O-])cc1)c1ccc2c(c1)OCO2 (stereo unspecified) 7.9

Requested field: solubility kinetic. Item: COc1ccc(OCC(O)CNC(=O)Nc2cccc3ccccc23)cc1 (stereo unspecified) 4.3

Next item in the queue.
Which solubility kinetic reading was recorded for the molecule CCCCOc1ccc(S(=O)(=O)N2CCCCC2)cc1 ? 1.1

----------
Parameter solubility kinetic: see the listing below.
# PARTICULARS: buffer; pH 7.4; 200.0 µM
Report the figure in µg/mL without appending any unit label.

Some compounds with known solubility kinetic results, for comparison:
Item under review: CC(C)(CN1CCOCC1)NS(=O)(=O)c1ccccc1 . Reported solubility kinetic? 38

Which measured solubility kinetic value corresponds to CCc1nc2ccccc2n1CCc1ccccc1.Cl ? 37.6

Moving on to the next compound.
# solubility kinetic lookup, item COC(=O)c1ccc2c(c1)NC(=O)c1ccccc1S2 3.9

----------
# PARTICULARS: buffer; pH 7.4; 200.0 µM
OUTCOME_MEASURE: solubility kinetic (µg/mL)
Report only the number, with the unit µg/mL understood.

Use these answered entries as a reference point.
solubility kinetic for Nc1cccc2c1C(=O)N(CCOc1ccccc1F)C2=O ? 20.3

Using the record for Cc1ccc(S(=O)(=O)N(C)CC(=O)NCC(=O)Nc2ccc(F)c(F)c2F)cc1 , report its solubility kinetic. 6.4

Entry CCOc1ccccc1NC(=O)Cc1coc2ccc(C)cc12 has what solubility kinetic? 7.3

So what's the measured solubility kinetic for this one? CCOc1cc(/C=N/OC(C)=O)ccc1OCc1ccccc1 27.2

Please look up its solubility kinetic: O=C(Nc1ccc(F)c(Cl)c1)c1nsc(Cl)c1Cl 0.7

Report solubility kinetic for CC(C)Oc1ccc(C(=O)OC(C)C(=O)NC2CCCCC2C)cc1 (centres undefined) please. 4.4

Others:
Which solubility kinetic is listed for O=C(CNC(=O)c1ccc(-c2ccccc2)cc1)Nc1cccc(CO)c1 ? 9.3

Look at this compound and give its reported solubility kinetic. O=C(O)C1C2C=CC(C2)C1C(=O)Nc1ccc(Cl)c(Cl)c1 (centres undefined) 13.4

Sample COc1cc(C(=O)N[C@H](C(=O)NC2CCCc3ccccc32)C(C)C)cc(OC)c1OC (some centres undefined) — what was its solubility kinetic? 4.9

----------
Each item that follows carries a reported solubility kinetic.
# PARTICULARS: buffer; pH 7.4; 200.0 µM
Write the value in µg/mL as a bare number.

Reference set (3 entries):
Name the reported solubility kinetic value associated with the compound CC(=O)Nc1ccc(NC(=O)C2CC(=O)N(C(C)C)C2)cc1 (stereo unspecified) 43.4

I have this compound here, O=C(CSc1cccc[n+]1[O-])c1cccs1 , and I need its recorded solubility kinetic. 28

What value of solubility kinetic has been recorded for this entry: O=C(NC1CCCCC1)c1cccc(OCc2ccccc2)c1 0.8

// switching to the query compound
State the recorded solubility kinetic for this entry: COc1ccccc1CN1CCN(S(=O)(=O)c2ccc(C)cc2)CC1 1
